- Target under test: Human HDAC1 (Homo sapiens)
- Construct: Full length with C-terminal GST tag, MW=79.9 kDa; GST (C); purchased BioMol SE-456; host or cells: baculovirus / Sf9 cells
- Sequence (Q13547 whole entry): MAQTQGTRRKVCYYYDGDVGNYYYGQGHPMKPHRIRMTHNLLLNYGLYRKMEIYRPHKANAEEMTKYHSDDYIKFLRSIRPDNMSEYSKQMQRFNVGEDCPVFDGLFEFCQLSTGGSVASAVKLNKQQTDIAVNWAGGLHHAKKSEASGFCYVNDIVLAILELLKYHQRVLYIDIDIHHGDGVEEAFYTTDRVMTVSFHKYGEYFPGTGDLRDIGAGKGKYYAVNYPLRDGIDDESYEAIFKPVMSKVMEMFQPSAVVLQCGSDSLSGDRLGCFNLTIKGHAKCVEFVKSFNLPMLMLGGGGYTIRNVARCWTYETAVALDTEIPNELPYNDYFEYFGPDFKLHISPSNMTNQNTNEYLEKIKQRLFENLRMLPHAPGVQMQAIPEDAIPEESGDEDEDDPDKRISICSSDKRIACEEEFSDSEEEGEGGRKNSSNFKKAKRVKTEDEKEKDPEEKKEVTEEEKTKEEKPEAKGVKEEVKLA
- Test name: In vitro HDAC1 inhibition, fluorogenic peptide substrate
- Assay type: biochemical
- Assay conditions: No preincubation; read-out: IC50 (μM) HDAC-1
Examples of compounds with documented log10 IC50 follow.
Quantity: log10 IC50 (log10 of the value in µM)

[
  {
    "Smiles notation": "Cc1ccc(N)c(NC(=O)CCCCCCNc2c3c(nc4ccccc24)CCCC3)c1",
    "log10 IC50": 1.76
  },
  {
    "Smiles notation": "Nc1ncc(-c2ccccc2)cc1NC(=O)CCCCCCNc1c2c(nc3ccccc13)CCCC2",
    "log10 IC50": 2.77
  },
  {
    "Smiles notation": "CC(C)(C)c1ccc(-c2ccc(N)c(NC(=O)CCCCCCNc3c4c(nc5ccccc35)CCCC4)c2)cc1",
    "log10 IC50": 1.67
  },
  {
    "Smiles notation": "Nc1ccc(-c2cccnc2)cc1NC(=O)CCCCCCNc1c2c(nc3ccccc13)CCCC2",
    "log10 IC50": 0.60
  },
  {
    "Smiles notation": "Cc1cccc(-c2ccc(N)c(NC(=O)CCCCCCNc3c4c(nc5ccccc35)CCCC4)c2)c1",
    "log10 IC50": 2.40
  },
  {
    "Smiles notation": "Nc1ccc(-c2ccccc2)cc1NC(=O)CCCCCCNc1c2c(nc3ccccc13)CCCC2",
    "log10 IC50": 0.10
  }
]

====

- Test system: Nuclear Extract from HeLa Cells
- Construct: 25 ng/μl Nuclear Extract from HeLa Cells: Prepared by high salt extraction of HeLa nuclei (human cervical cancer cell line)
- Test name: HeLa nuclear extract HDAC activity inhibition
- Format: biochemical, human
# IC50 values compiled below
Quantity: IC50 (µM)

[
  {
    "Smiles notation": "O=C(CCCCCCNC(=O)c1c2c(nc3ccccc13)CCCC2)NO",
    "Observed measurement": 0.42
  },
  {
    "Smiles notation": "O=C(CCCCCNc1c2c(nc3ccccc13)CCCC2)NO",
    "Observed measurement": 0.066
  },
  {
    "Smiles notation": "O=C(CCCCCCNc1c2c(nc3ncccc13)CCCC2)NO",
    "Observed measurement": 0.12
  },
  {
    "Smiles notation": "O=C(CCCCCNC(=O)c1c2c(nc3ccccc13)CCCC2)NO",
    "Observed measurement": 0.85
  },
  {
    "Smiles notation": "O=C(CCCCCCNc1c2c(nc3ccccc13)CCCCC2)NO",
    "Observed measurement": 0.038
  },
  {
    "Smiles notation": "O=C(NO)c1ccc(CNc2c3c(nc4ccccc24)CCCC3)cc1",
    "Observed measurement": 0.9
  },
  {
    "Smiles notation": "COc1cccc2c(NCCCCCCC(=O)NO)c3c(nc12)CCCC3",
    "Observed measurement": 0.033
  },
  {
    "Smiles notation": "O=C(CCCCCCNc1c2c(nc3cnccc13)CCCC2)NO",
    "Observed measurement": 0.095
  },
  {
    "Smiles notation": "O=C(CCCCCCNc1c2c(nc3ccccc13)CCCC2)NO",
    "Observed measurement": 0.023
  },
  {
    "Smiles notation": "O=C(CCCCCCNc1c2c(nc3ccccc13)CCC2)NO",
    "Observed measurement": 0.019
  }
]

====

The following compounds are shown together with reported IC50 values.
- Target under test: Human HDAC8 (Homo sapiens)
- Construct: Full length, MW=42 kDa, expressed in an E. coli expression system; purchased BioMol SE-145; host or cells: E. coli
- Sequence (Q9BY41 whole entry): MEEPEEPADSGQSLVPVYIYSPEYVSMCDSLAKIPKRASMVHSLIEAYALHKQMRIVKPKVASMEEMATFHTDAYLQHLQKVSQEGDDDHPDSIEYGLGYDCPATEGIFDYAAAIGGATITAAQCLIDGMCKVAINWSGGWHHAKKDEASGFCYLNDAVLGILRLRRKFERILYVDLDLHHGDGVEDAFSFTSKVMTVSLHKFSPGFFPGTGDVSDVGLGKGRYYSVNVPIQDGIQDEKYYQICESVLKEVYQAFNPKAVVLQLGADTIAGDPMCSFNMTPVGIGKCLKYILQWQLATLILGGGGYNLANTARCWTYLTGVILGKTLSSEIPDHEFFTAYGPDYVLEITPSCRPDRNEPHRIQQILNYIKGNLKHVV
- Test name: In vitro HDAC8 inhibition, fluorogenic peptide substrate
- Type: biochemical
- Assay conditions: read-out: IC50 (μM) HDAC-8

[
  {
    "Compound": "COc1cccc2c(NCCCCCCC(=O)NO)c3c(nc12)CCCC3 [Example 5]",
    "IC50 / µM": 1.52
  },
  {
    "Compound": "O=C(CCCCCCNc1c2c(nc3ccccc13)CCCC2)NO [Example 2]",
    "IC50 / µM": 0.53
  },
  {
    "Compound": "O=C(CCCCCCNc1c2c(nc3ccccc13)CCC2)NO [Example 3]",
    "IC50 / µM": 1.28
  }
]

====

- Target under test: Human HDAC6 (Homo sapiens)
- Construct: Full length with N-terminal GST tag, MW=159 kDa; GST (N); purchased BioMol SE-508; host or cells: baculovirus / Sf9 cells
- Test name: In vitro HDAC6 inhibition, fluorogenic peptide substrate
- Assay type: biochemical
- Assay conditions: read-out: IC50 (μM) HDAC-6
- Text: In Vitro Inhibitory Activity of Histone Deacetylase: Human Isoforms HDAC1, 2, 3, 4, 5, 6, 7, 8, 9, 10 and 11 and HeLa Cell Line Nuclear Extract (IC50 Data) […]
Quantity: IC50 (µM)

[
  {
    "Molecule": "O=C(CCCCCNC(=O)c1c2c(nc3ccccc13)CCCC2)NO [Example 10]",
    "Observed measurement": 0.33
  },
  {
    "Molecule": "O=C(CCCCCCNc1c2c(nc3ccccc13)CCCC2)NO [Example 2]",
    "Observed measurement": 0.01
  },
  {
    "Molecule": "O=C(CCCCCCNc1c2c(nc3ncccc13)CCCC2)NO [Example 7]",
    "Observed measurement": 0.038
  },
  {
    "Molecule": "O=C(CCCCCCNc1c2c(nc3ccccc13)CCCCC2)NO [Example 4]",
    "Observed measurement": 0.015
  },
  {
    "Molecule": "O=C(CCCCCCNC(=O)c1c2c(nc3ccccc13)CCCC2)NO [Example 11]",
    "Observed measurement": 0.19
  },
  {
    "Molecule": "COc1cccc2c(NCCCCCCC(=O)NO)c3c(nc12)CCCC3 [Example 5]",
    "Observed measurement": 0.015
  },
  {
    "Molecule": "O=C(CCCCCNc1c2c(nc3ccccc13)CCCC2)NO [Example 1]",
    "Observed measurement": 0.036
  },
  {
    "Molecule": "O=C(CCCCCCNc1c2c(nc3cnccc13)CCCC2)NO [Example 8]",
    "Observed measurement": 0.033
  }
]

====

In this section we review reported IC50 values for a set of compounds.
- Target under test: Human HDAC6 (Homo sapiens, UniProt Q9UBN7)
- Construct: Full length with N-terminal GST tag, MW=159 kDa; GST (N); purchased BioMol SE-508; host or cells: baculovirus / Sf9 cells
- Sequence (Q9UBN7 whole entry): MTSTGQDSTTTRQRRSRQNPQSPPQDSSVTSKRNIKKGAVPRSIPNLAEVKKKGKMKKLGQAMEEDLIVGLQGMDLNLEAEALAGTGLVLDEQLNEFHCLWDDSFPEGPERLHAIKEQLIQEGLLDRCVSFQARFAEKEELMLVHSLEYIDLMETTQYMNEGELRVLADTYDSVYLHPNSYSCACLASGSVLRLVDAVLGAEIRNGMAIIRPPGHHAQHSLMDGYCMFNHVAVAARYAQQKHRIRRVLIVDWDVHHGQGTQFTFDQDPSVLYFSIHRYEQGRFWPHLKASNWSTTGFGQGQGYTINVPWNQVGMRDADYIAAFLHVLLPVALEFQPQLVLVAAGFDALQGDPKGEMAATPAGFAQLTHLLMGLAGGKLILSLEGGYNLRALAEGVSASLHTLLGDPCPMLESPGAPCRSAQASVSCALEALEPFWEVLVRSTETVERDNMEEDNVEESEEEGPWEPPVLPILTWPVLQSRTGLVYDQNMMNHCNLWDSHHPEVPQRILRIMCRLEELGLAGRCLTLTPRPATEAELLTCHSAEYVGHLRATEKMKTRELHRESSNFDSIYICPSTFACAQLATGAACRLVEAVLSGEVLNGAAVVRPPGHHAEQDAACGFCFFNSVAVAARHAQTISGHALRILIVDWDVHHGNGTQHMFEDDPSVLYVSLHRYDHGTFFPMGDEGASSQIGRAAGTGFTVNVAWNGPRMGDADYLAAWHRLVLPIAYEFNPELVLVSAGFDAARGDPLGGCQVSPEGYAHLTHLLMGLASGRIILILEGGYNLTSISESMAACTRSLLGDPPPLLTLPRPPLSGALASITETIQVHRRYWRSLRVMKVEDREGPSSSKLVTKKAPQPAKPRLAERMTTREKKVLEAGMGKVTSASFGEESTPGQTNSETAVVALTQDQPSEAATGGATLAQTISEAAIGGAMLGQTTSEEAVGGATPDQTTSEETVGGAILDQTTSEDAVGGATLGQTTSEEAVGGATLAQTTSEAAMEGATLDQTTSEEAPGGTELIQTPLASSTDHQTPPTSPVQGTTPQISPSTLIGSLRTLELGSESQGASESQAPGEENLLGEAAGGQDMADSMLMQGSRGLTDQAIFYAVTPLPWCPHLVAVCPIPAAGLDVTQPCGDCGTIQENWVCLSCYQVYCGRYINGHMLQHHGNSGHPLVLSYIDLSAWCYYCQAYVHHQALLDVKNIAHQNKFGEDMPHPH
- Test name: In vitro HDAC6 inhibition, fluorogenic peptide substrate
- Assay type: biochemical
- Assay conditions: No preincubation; read-out: IC50 (μM) HDAC-6

[
  {
    "Smiles notation": "Cc1ccc(N)c(NC(=O)CCCCCCNc2c3c(nc4ccccc24)CCCC3)c1",
    "IC50": "> 50 µM"
  },
  {
    "Smiles notation": "Cc1ccc(NC(=O)CCCCCCNc2c3c(nc4ccccc24)CCCC3)c(N)c1",
    "IC50": "> 50 µM"
  },
  {
    "Smiles notation": "Nc1ccc(-c2ccccc2)cc1NC(=O)CCCCCCNc1c2c(nc3ccccc13)CCCC2",
    "IC50": "13.2 µM"
  }
]

====

- Target under test: Human HDAC5 (Homo sapiens, UniProt Q9UQL6)
- Construct: Full length with Nterminal GST tag, MW=150 kDa; GST (N); purchased BioMol, Hamburg, Germany; host or cells: baculovirus / Sf9 cells
- Sequence (Q9UQL6 1-1123 isoform Q9UQL6-3): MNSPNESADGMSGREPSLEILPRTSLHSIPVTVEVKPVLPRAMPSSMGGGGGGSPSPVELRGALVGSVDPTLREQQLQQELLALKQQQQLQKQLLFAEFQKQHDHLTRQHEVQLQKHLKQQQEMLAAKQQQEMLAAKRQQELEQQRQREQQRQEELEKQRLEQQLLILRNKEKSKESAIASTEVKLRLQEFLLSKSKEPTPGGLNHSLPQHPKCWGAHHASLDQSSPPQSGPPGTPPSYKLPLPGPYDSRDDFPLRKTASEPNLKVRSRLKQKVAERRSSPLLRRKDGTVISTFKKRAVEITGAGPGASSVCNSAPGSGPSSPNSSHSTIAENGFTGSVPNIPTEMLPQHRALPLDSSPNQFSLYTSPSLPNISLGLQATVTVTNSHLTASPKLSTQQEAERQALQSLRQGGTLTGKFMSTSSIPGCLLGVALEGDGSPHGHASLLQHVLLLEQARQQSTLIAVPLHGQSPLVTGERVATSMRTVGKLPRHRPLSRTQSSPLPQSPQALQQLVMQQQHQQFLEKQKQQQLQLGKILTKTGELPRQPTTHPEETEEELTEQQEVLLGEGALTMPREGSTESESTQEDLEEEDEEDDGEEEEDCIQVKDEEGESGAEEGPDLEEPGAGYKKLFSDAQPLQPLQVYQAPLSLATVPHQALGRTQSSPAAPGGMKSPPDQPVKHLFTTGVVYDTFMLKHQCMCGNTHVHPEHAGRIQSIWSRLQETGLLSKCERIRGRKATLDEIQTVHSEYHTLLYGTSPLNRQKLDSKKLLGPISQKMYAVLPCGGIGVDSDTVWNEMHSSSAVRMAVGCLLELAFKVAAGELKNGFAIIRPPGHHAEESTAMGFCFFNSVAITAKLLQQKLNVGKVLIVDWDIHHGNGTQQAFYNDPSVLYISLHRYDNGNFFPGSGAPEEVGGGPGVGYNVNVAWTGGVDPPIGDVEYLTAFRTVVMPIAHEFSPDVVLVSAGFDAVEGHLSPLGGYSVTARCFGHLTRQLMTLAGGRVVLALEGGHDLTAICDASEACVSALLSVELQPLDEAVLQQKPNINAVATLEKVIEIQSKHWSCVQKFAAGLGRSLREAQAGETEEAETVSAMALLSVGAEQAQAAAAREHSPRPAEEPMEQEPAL
- Test name: In vitro HDAC5 inhibition, fluorogenic substrate
- Assay type: biochemical
- Assay conditions: read-out: IC50 (μM) HDAC-5
# IC50 values compiled below

[
  {
    "Smiles notation": "O=C(CCCCCCNc1c2c(nc3cnccc13)CCCC2)NO",
    "Reading unit": "µM",
    "Prefix operator": ">",
    "IC50": 5
  },
  {
    "Smiles notation": "COc1cccc2c(NCCCCCCC(=O)NO)c3c(nc12)CCCC3",
    "Reading unit": "µM",
    "Prefix operator": ">",
    "IC50": 5
  },
  {
    "Smiles notation": "O=C(CCCCCCNc1c2c(nc3ccccc13)CCCC2)NO",
    "Reading unit": "µM",
    "Prefix operator": "=",
    "IC50": 0.44
  },
  {
    "Smiles notation": "O=C(CCCCCNc1c2c(nc3ccccc13)CCCC2)NO",
    "Reading unit": "µM",
    "Prefix operator": "=",
    "IC50": 2.14
  }
]

====

- Target under test: Human HDAC1 (Homo sapiens)
- Construct: Full length with C-terminal GST tag, MW=79.9 kDa; GST (C); purchased BioMol SE-456; host or cells: baculovirus / Sf9 cells
- Test name: In vitro HDAC1 inhibition, fluorogenic peptide substrate
- Assay type: biochemical
- Assay conditions: read-out: IC50 (μM) HDAC-1
- Source text: In Vitro Inhibitory Activity of Histone Deacetylase: Human Isoforms HDAC1, 2, 3, 4, 5, 6, 7, 8, 9, 10 and 11 and HeLa Cell Line Nuclear Extract (IC50 Data) […]
Entries whose IC50 is below 0.9 µM take 1.0; entries at or above 0.9 µM take 0.0.

[
  {
    "Smiles notation": "O=C(CCCCCNC(=O)c1c2c(nc3ccccc13)CCCC2)NO",
    "Target under test": "Human HDAC1 (Homo sapiens)",
    "Cat": 0.0
  },
  {
    "Smiles notation": "O=C(CCCCCCNc1c2c(nc3ccccc13)CCCC2)NO",
    "Target under test": "Human HDAC1 (Homo sapiens)",
    "Cat": 1.0
  },
  {
    "Smiles notation": "O=C(CCCCCCNc1c2c(nc3ccccc13)CCC2)NO",
    "Target under test": "Human HDAC1 (Homo sapiens)",
    "Cat": 1.0
  },
  {
    "Smiles notation": "O=C(CCCCCCNC(=O)c1c2c(nc3ccccc13)CCCC2)NO",
    "Target under test": "Human HDAC1 (Homo sapiens)",
    "Cat": 0.0
  },
  {
    "Smiles notation": "O=C(CCCCCCNc1c2c(nc3ccccc13)CCCCC2)NO",
    "Target under test": "Human HDAC1 (Homo sapiens)",
    "Cat": 1.0
  },
  {
    "Smiles notation": "O=C(CCCCCCNc1c2c(nc3ncccc13)CCCC2)NO",
    "Target under test": "Human HDAC1 (Homo sapiens)",
    "Cat": 0.0
  },
  {
    "Smiles notation": "O=C(CCCCCCNc1c2c(nc3cnccc13)CCCC2)NO",
    "Target under test": "Human HDAC1 (Homo sapiens)",
    "Cat": 0.0
  },
  {
    "Smiles notation": "O=C(CCCCCNc1c2c(nc3ccccc13)CCCC2)NO",
    "Target under test": "Human HDAC1 (Homo sapiens)",
    "Cat": 0.0
  }
]
